# Test system: KM12
# Assay Summary: NCI tumour cell line growth inhibition, 48 h
Calls of active or inactive are those of the source. No stated cut-off is given here; in the data, active = GI50 up to about 1.1 µM and inactive = higher.
Would you mind answering with one of these outcomes? active, inactive

>  <Compound>
Cc1cc(NCCCCCCCNc2cc(C)nc3cc(N)ccc23)c2ccc(N)cc2n1

>  <Measurement Target>
KM12

>  <Group Label>
inactive

$$$$
>  <Compound>
N[C@H]1CCN(c2c(F)cc3c(=O)c(C(=O)O)cn4c3c2Oc2c-4ccc3c2ccc2ccccc23)C1

>  <Measurement Target>
KM12

>  <Group Label>
active

$$$$
>  <Compound>
Cc1ns/c(=N\C(=S)N(C)C)n1C

>  <Measurement Target>
KM12

>  <Group Label>
inactive

$$$$

Test call, this compound: C=C(C(=O)OCC)C(=O)OCC inactive

For CC(=O)OC12CC(C)C3(O)C4C=C(C)C(=O)[C@@]4(O)CC(CO)=C[C@H]3C1C2(C)C (stereo not given in full) , which call appears in the assay record? inactive

The reported measurements were obtained from ChEMBL document CHEMBL1201862.
